Test system: Staphylococcus aureus
procedure.details: Minimal inhibitory concentration (MIC) determination
Type: cell-based
test.conditions: Staphylococcus aureus; S. aureus ATCC29213, Muller-Hilton broth, 18 h to 24 h, 37° C.; read-out: MIC S. aureus (ATCC29213)
parameter.measured: MIC (µM)
Field format: number, assumed µM, no unit text.

[[record]]
compound = "C=C(CC=C(C)CCC=C(C)C)CCC(C)(C)C=CCCC(C)=CCOC(COP(=O)(O)OC1OC(C(N)=O)C(C)(O)C(OC(N)=O)C1OC1OC(COC2OC(CO)C(O)C(O)C2O)C(OC2OC(C)C(OC3OC(c4nc(C(=O)CCC(=O)O)nn4-c4ccc([N+](=O)[O-])c(C(=O)NCCN)c4)C(O)C(O)C3O)C(O)C2NC(C)=O)C(O)C1NC(C)=O)C(=O)O (stereo not shown) [Compound 2]"
parameter_measured = "MIC"
readout_value = 1.25

[[record]]
compound = "O=C1OC(c2ccc(Br)cc2)=C/C1=C/c1ccc([N+](=O)[O-])o1 [Compound 6]"
parameter_measured = "MIC"
readout_value = 1


// switching to the query compound
Supply MIC value. Item: O=C1/C(=N\Nc2nccs2)C(c2ccccc2)=NN1c1ccccc1 [Compound 7]
4
